assay: [14C]rucaparib uptake and retention in SW620 cells; assay type: in vitro ADME, human; conditions: human, SW620 cells
quantityKind: half-life (min)
Give bare numbers, in min.

Ask: So what does the record say about half-life for `CNCc1ccc(-c2[nH]c3cc(F)cc4c3c2CCNC4=O)cc1` ?
Result: 20
